Target: T1, Cynomolgus monkey PDGF-BB (cynomolgus monkey, UniProt P01127 82-190 (human entry), limits assumed)
T1 chain: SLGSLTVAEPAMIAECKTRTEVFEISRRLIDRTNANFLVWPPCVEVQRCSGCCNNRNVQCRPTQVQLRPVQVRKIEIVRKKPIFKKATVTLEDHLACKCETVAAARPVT
Test: cell-based or functional assay
MEASUREMENT KIND: cynoPDGF-BB NIH-3T3 Proliferation IC50 (nM)
Express your answer in nM, writing the number without its unit.

Some solved cases for reference:
CL-33812-IgG (antibody, V domains shown) VH: EVTLRESGPALVKPTQTLTLTCTFSGFSLSTYGMGVGWIRQPPGKALEWLANIWWDDDKYYNPSLKNRLTISKDTSKNQVVLTMTNMDPVDTATYYCARIESNPWKYSFDYWGQGTMVTVSS VL: EIVLTQSPGTLSLSPGERATLSCERSSGDIWQSYVSWYQQKPGQAPRLVIYSDDQRASGIPDRFSGSGSGTDFTLTISRLEPEDFAVYYCQSYGINIDVVFGGGTKVEIK : 0.028
CL-33737-IgG (antibody, V domains shown) VH: EVTLRESGPALVKPTQTLTLTCTFSGFSLSTYGMGVGWIRKPPGKALEWLANIWWDDDKYYNPSLKNRLTISKDTSKNQVVLTMTNMDPVDTATYYCARIESSGPKYSFDYWGQGTMVTVSS VL: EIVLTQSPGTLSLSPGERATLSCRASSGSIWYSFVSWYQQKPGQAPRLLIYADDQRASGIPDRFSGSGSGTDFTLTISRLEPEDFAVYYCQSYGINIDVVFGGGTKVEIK : 0.024
CL-33803-IgG (antibody, V domains shown) VH: EVTLRESGPALVKPTQTLTLTCTFSGFSLSTYGMGVGWIRQPPGKALEWLANIWWDDDKYYNPSLKNRLTISKDTSKNQVVLTMTNMDPVDTATYYCARIESLPTSYSFDYWGQGTMVTVSS VL: EIVLTQSPGTLSLSPGERATLSCERSSGDIWDTYVSWYQQKPGQAPRLLIYADDQRPSGIPDRFSGSGSGTDFTLTISRLEPEDFAVYYCQSYDIIIDIVFGGGTKVEIK : 0.018
CL-33811-IgG (antibody, V domains shown) VH: EVTLRESGPALVKPTQTLTLTCTFSGFSLSTYGMGVGWIRQPPGKALEWLANIWWDDDKYYNPSLKNRLTISKDTSKNQVVLTMTNMDPVDTATYYCARIESSWTTYSFDYWGQGTMVTVSS VL: EIVLTQSPGTLSLSPGERATLSCERSSGSIWHSYVSWYQQKPGQAPRLLIYSDDQRATGIPDRFSGSGSGTDFTLTISRLEPEDFAVYYCQSYGIYIDVVFGGGTKVEIK : 0.012

Moving on to the next binder.
What cynoPDGF-BB NIH-3T3 Proliferation IC50 value was documented for this binder, CL-33820-IgG (antibody, V domains shown) VH: EVTLRESGPALVKPTQTLTLTCTFSGFSLSTYGMGVGWIRQPPGKALEWLANIWWDDDKYYNPSLKNRLTISKDTSKNQVVLTMTNMDPVDTATYYCARIESSFTSYSFDYWGQGTMVTVSS VL: EIVLTQSPGTLSLSPGERATLSCKRSSGSIYDTYVSWYQQKPGQAPRLVIYSDDQRPSGIPDRFSGSGSGTDFTLTISRLEPEDFAVYYCQSYDLTIDITFGGGTKVEIK ?
0.013
